system: Bacillus subtilis; assay: Antibacterial activity against Bacillus subtilis 168 DSM 402 assessed as growth inhibition after 18 hrs; type: functional; settings: subsp. subtilis str. 168 DSM 402, 18 h
Peptide text beside a SMILES is read from it. * marks the point of attachment. Myristoyl = CCCCCCCCCCCCCC(=O)*; Hexanoyl = CCCCCC(=O)*
Here, each record is paired with measured MIC data.

MOLECULE	MIC (µM)
N=C(N)NCCC[C@H](NC(=O)[C@H](Cc1c[nH]c2ccccc12)NC(=O)[C@H](CCCNC(=N)N)NC(=O)[C@H](Cc1c[nH]c2ccccc12)NC(=O)[C@@H](N)CCCNC(=N)N)C(=O)N[C@@H](Cc1c[nH]c2ccccc12)C(N)=O (H-RWRWRW-NH2)	3
CCCCCCCCCCCCCC(=O)NCCCC[C@H](NC(=O)[C@H](Cc1c[nH]c2ccccc12)NC(=O)[C@H](CCCNC(=N)N)NC(=O)[C@H](Cc1c[nH]c2ccccc12)NC(=O)[C@H](CCCNC(=N)N)NC(=O)[C@H](Cc1c[nH]c2ccccc12)NC(=O)[C@@H](N)CCCNC(=N)N)C(N)=O (H-RWRWRWK(Myristoyl)-NH2)	4
CCCCCC(=O)NCCCC[C@H](N)C(=O)N[C@@H](CCCNC(=N)N)C(=O)N[C@@H](Cc1c[nH]c2ccccc12)C(=O)N[C@@H](CCCNC(=N)N)C(=O)N[C@@H](Cc1c[nH]c2ccccc12)C(=O)N[C@@H](CCCNC(=N)N)C(=O)N[C@@H](Cc1c[nH]c2ccccc12)C(N)=O (H-K(Hexanoyl)RWRWRW-NH2)	0.6
CC(=O)NCCCC[C@H](N)C(=O)N[C@@H](CCCNC(=N)N)C(=O)N[C@@H](Cc1c[nH]c2ccccc12)C(=O)N[C@@H](CCCNC(=N)N)C(=O)N[C@@H](Cc1c[nH]c2ccccc12)C(=O)N[C@@H](CCCNC(=N)N)C(=O)N[C@@H](Cc1c[nH]c2ccccc12)C(N)=O (H-K(Ac)RWRWRW-NH2)	10

###

test system: Acinetobacter baumannii; experiment: Antibacterial activity against Acinetobacter baumannii DSM 30007 assessed as growth inhibition after 18 hrs; format: functional; settings: DSM 30007, 18 h
Peptide text beside a SMILES is read from it. * marks the point of attachment. Lauroyl = CCCCCCCCCCCC(=O)*; Octanoyl = CCCCCCCC(=O)*
Measured MIC accompanies every entry in the list below.
MEASUREMENT LABEL: MIC

COMPOUND	RESULT
CCCCCCCCCCCC(=O)NCCCC[C@H](N)C(=O)N[C@@H](CCCNC(=N)N)C(=O)N[C@@H](Cc1c[nH]c2ccccc12)C(=O)N[C@@H](CCCNC(=N)N)C(=O)N[C@@H](Cc1c[nH]c2ccccc12)C(=O)N[C@@H](CCCNC(=N)N)C(=O)N[C@@H](Cc1c[nH]c2ccccc12)C(N)=O (H-K(Lauroyl)RWRWRW-NH2)	18 µM
CCCCCCCC(=O)NCCCC[C@H](N)C(=O)N[C@@H](CCCNC(=N)N)C(=O)N[C@@H](Cc1c[nH]c2ccccc12)C(=O)N[C@@H](CCCNC(=N)N)C(=O)N[C@@H](Cc1c[nH]c2ccccc12)C(=O)N[C@@H](CCCNC(=N)N)C(=O)N[C@@H](Cc1c[nH]c2ccccc12)C(N)=O (H-K(Octanoyl)RWRWRW-NH2)	9 µM

###

assay: Hemolytic activity against human RBC assessed as hemoglobin leakage at 250 ug/ml; format: ADME, cell-based, Erythrocyte; settings: human red blood cells, read-out: Activity
Peptide text beside a SMILES is read from it. * marks the point of attachment. Decanoyl = CCCCCCCCCC(=O)*; Octanoyl = CCCCCCCC(=O)*; Butyryl = CCCC(=O)*
Recorded hemolysis at 250 ug/ml, one value per entry.

MOLECULE	hemolysis at 250 ug/ml
CCCCCCCC(=O)NCCCC[C@H](N)C(=O)N[C@@H](CCCNC(=N)N)C(=O)N[C@@H](Cc1c[nH]c2ccccc12)C(=O)N[C@@H](CCCNC(=N)N)C(=O)N[C@@H](Cc1c[nH]c2ccccc12)C(=O)N[C@@H](CCCNC(=N)N)C(=O)N[C@@H](Cc1c[nH]c2ccccc12)C(N)=O (H-K(Octanoyl)RWRWRW-NH2)	> 50%
N=C(N)NCCC[C@H](NC(=O)[C@H](Cc1c[nH]c2ccccc12)NC(=O)[C@H](CCCNC(=N)N)NC(=O)[C@H](Cc1c[nH]c2ccccc12)NC(=O)[C@@H](N)CCCNC(=N)N)C(=O)N[C@@H](Cc1c[nH]c2ccccc12)C(N)=O (H-RWRWRW-NH2)	< 10%
CCCCCCCCCC(=O)NCCCC[C@H](NC(=O)[C@H](Cc1c[nH]c2ccccc12)NC(=O)[C@H](CCCNC(=N)N)NC(=O)[C@H](Cc1c[nH]c2ccccc12)NC(=O)[C@H](CCCNC(=N)N)NC(=O)[C@H](Cc1c[nH]c2ccccc12)NC(=O)[C@@H](N)CCCNC(=N)N)C(N)=O (H-RWRWRWK(Decanoyl)-NH2)	50%
CCCC(=O)NCCCC[C@H](NC(=O)[C@H](Cc1c[nH]c2ccccc12)NC(=O)[C@H](CCCNC(=N)N)NC(=O)[C@H](Cc1c[nH]c2ccccc12)NC(=O)[C@H](CCCNC(=N)N)NC(=O)[C@H](Cc1c[nH]c2ccccc12)NC(=O)[C@@H](N)CCCNC(=N)N)C(N)=O (H-RWRWRWK(Butyryl)-NH2)	< 10%

###

tested on: Pseudomonas aeruginosa; test: Antibacterial activity against Pseudomonas aeruginosa DSM 50071 assessed as growth inhibition after 18 hrs; type: functional; conditions: DSM 50071, 18 h
Peptide text beside a SMILES is read from it. * marks the point of attachment. Butyryl = CCCC(=O)*

COMPOUND	TARGET UNDER TEST	MIC
CCCC(=O)NCCCC[C@H](N)C(=O)N[C@@H](CCCNC(=N)N)C(=O)N[C@@H](Cc1c[nH]c2ccccc12)C(=O)N[C@@H](CCCNC(=N)N)C(=O)N[C@@H](Cc1c[nH]c2ccccc12)C(=O)N[C@@H](CCCNC(=N)N)C(=O)N[C@@H](Cc1c[nH]c2ccccc12)C(N)=O (H-K(Butyryl)RWRWRW-NH2)	Pseudomonas aeruginosa	> 100 µM
CCCC(=O)NCCCC[C@H](NC(=O)[C@H](Cc1c[nH]c2ccccc12)NC(=O)[C@H](CCCNC(=N)N)NC(=O)[C@H](Cc1c[nH]c2ccccc12)NC(=O)[C@H](CCCNC(=N)N)NC(=O)[C@H](Cc1c[nH]c2ccccc12)NC(=O)[C@@H](N)CCCNC(=N)N)C(N)=O (H-RWRWRWK(Butyryl)-NH2)	Pseudomonas aeruginosa	> 100 µM

###

assay: Hemolytic activity against human RBC assessed as hemoglobin leakage; type: ADME, cell-based, Erythrocyte; details: human red blood cells
Peptide text beside a SMILES is read from it. * marks the point of attachment. Octanoyl = CCCCCCCC(=O)*

COMPOUND	UNIT OF MEASURE	HC50
CCCCCCCC(=O)NCCCC[C@H](NC(=O)[C@H](Cc1c[nH]c2ccccc12)NC(=O)[C@H](CCCNC(=N)N)NC(=O)[C@H](Cc1c[nH]c2ccccc12)NC(=O)[C@H](CCCNC(=N)N)NC(=O)[C@H](Cc1c[nH]c2ccccc12)NC(=O)[C@@H](N)CCCNC(=N)N)C(N)=O (H-RWRWRWK(Octanoyl)-NH2)	µM	285
CCCCCCCC(=O)NCCCC[C@H](N)C(=O)N[C@@H](CCCNC(=N)N)C(=O)N[C@@H](Cc1c[nH]c2ccccc12)C(=O)N[C@@H](CCCNC(=N)N)C(=O)N[C@@H](Cc1c[nH]c2ccccc12)C(=O)N[C@@H](CCCNC(=N)N)C(=O)N[C@@H](Cc1c[nH]c2ccccc12)C(N)=O (H-K(Octanoyl)RWRWRW-NH2)	µM	114

###

system: Escherichia coli; assay: Antibacterial activity against Escherichia coli DSM 30083 assessed as growth inhibition after 18 hrs; type: functional; conditions: DSM 30083, 18 h
Peptide text beside a SMILES is read from it. * marks the point of attachment. Lauroyl = CCCCCCCCCCCC(=O)*; Decanoyl = CCCCCCCCCC(=O)*; Hexanoyl = CCCCCC(=O)*
Each entry below carries its recorded MIC.

COMPOUND	TARGET UNDER TEST	MIC (µM)
CCCCCCCCCCCC(=O)NCCCC[C@H](NC(=O)[C@H](Cc1c[nH]c2ccccc12)NC(=O)[C@H](CCCNC(=N)N)NC(=O)[C@H](Cc1c[nH]c2ccccc12)NC(=O)[C@H](CCCNC(=N)N)NC(=O)[C@H](Cc1c[nH]c2ccccc12)NC(=O)[C@@H](N)CCCNC(=N)N)C(N)=O (H-RWRWRWK(Lauroyl)-NH2)	Escherichia coli	4
CCCCCCCCCC(=O)NCCCC[C@H](NC(=O)[C@H](Cc1c[nH]c2ccccc12)NC(=O)[C@H](CCCNC(=N)N)NC(=O)[C@H](Cc1c[nH]c2ccccc12)NC(=O)[C@H](CCCNC(=N)N)NC(=O)[C@H](Cc1c[nH]c2ccccc12)NC(=O)[C@@H](N)CCCNC(=N)N)C(N)=O (H-RWRWRWK(Decanoyl)-NH2)	Escherichia coli	2
CCCCCC(=O)NCCCC[C@H](NC(=O)[C@H](Cc1c[nH]c2ccccc12)NC(=O)[C@H](CCCNC(=N)N)NC(=O)[C@H](Cc1c[nH]c2ccccc12)NC(=O)[C@H](CCCNC(=N)N)NC(=O)[C@H](Cc1c[nH]c2ccccc12)NC(=O)[C@@H](N)CCCNC(=N)N)C(N)=O (H-RWRWRWK(Hexanoyl)-NH2)	Escherichia coli	19
